# Test system: Hepatitis C virus
# measurementProtocol: Antiviral activity against Hepatitis C virus genotype 1b in human Huh7-luc clone ET replicon cells assessed as inhibition of replicon replication after 3 days by luciferase assay
# Type: functional, organism-based, Hepacivirus hominis
# assaySetup: Huh-7, 72 h
Just a reminder that ties go to -1: only EC50 strictly below 5 µM counts as 1.

- compound: "C[C@H](N[P@](=O)(OC[C@H]1O[C@@H](n2ccc(N)nc2=O)[C@@]2(CCO2)[C@@H]1O)Oc1ccccc1)C(=O)OCc1ccccc1"
  label: -1
- compound: "C[C@H](N[P@@](=O)(OC[C@H]1O[C@@H](n2ccc(N)nc2=O)[C@@]2(CCO2)[C@@H]1O)Oc1ccccc1)C(=O)OCc1ccccc1"
  label: -1
- compound: "CC(C)COC(=O)[C@H](C)NP(=O)(OC[C@H]1O[C@@H](n2ccc(=O)[nH]c2=O)[C@@]2(CCO2)[C@@H]1O)Oc1ccccc1 (mixture of isomers)"
  label: 1
- compound: "C[C@H](N[P@@](=O)(OC[C@H]1O[C@@H](n2ccc(=O)[nH]c2=O)[C@@]2(CCO2)[C@@H]1O)Oc1cccc2ccccc12)C(=O)OCc1ccccc1"
  label: 1
- compound: "C[C@@]1(O)[C@H](O)[C@@H](CO)O[C@H]1n1ccc(N)nc1=O"
  label: 1
- compound: "CC[C@H](N[P@](=O)(OC[C@H]1O[C@@H](n2ccc(=O)[nH]c2=O)[C@@]2(CCO2)[C@@H]1O)Oc1ccccc1)C(=O)OCc1ccccc1"
  label: 1
- compound: "C[C@H](NP(=O)(OC[C@H]1O[C@@H](n2ccc(=O)[nH]c2=O)[C@@]2(CCO2)[C@@H]1O)Oc1ccc(Cl)cc1)C(=O)OCc1ccccc1 (mixture of isomers)"
  label: 1
- compound: "Cc1ccc(C(C)C)c(OP(=O)(N[C@@H](C)C(=O)OCc2ccccc2)OC[C@H]2O[C@@H](n3ccc(=O)[nH]c3=O)[C@@]3(CCO3)[C@@H]2O)c1 (mixture of isomers)"
  label: -1
- compound: "C[C@@]1(F)[C@H](O)[C@@H](CO)O[C@H]1n1ccc(N)nc1=O"
  label: 1
- compound: "CC[C@H](NP(=O)(OC[C@H]1O[C@@H](n2ccc(=O)[nH]c2=O)[C@@]2(CCO2)[C@@H]1O)Oc1ccccc1)C(=O)OC(C)C (mixture of isomers)"
  label: -1
- compound: "CC(C)OC(=O)[C@H](C)NP(=O)(OC[C@H]1O[C@@H](n2ccc(N)nc2=O)[C@@]2(CCO2)[C@@H]1O)Oc1ccccc1 (mixture of isomers)"
  label: 1
- compound: "CCCCOC(=O)[C@H](C)NP(=O)(OC[C@H]1O[C@@H](n2ccc(=O)[nH]c2=O)[C@@]2(CCO2)[C@@H]1O)Oc1ccccc1 (stereo partly drawn)"
  label: 1

====

# System: Hepatocyte
# measurementProtocol: Prodrug activation in human hepatocytes assessed as triphosphate metabolite formation at 10 uM after 2 hrs by LC-MS analysis
# Type: ADME, cell-based
# Drug metabolism values compiled below

- compound: "C[C@H](NP(=O)(OC[C@H]1O[C@@H](n2ccc(=O)[nH]c2=O)[C@@]2(CCO2)[C@@H]1O)Oc1cccc2ccccc12)C(=O)OCc1ccccc1 (mixture of isomers)"
  Drug metabolism: "1713 ng/mL"
- compound: "CC[C@H](NP(=O)(OC[C@H]1O[C@@H](n2ccc(=O)[nH]c2=O)[C@@]2(CCO2)[C@@H]1O)Oc1ccccc1)C(=O)OCc1ccccc1 (mixture of isomers)"
  Drug metabolism: "202 ng/mL"
- compound: "CCCCOC(=O)[C@H](C)NP(=O)(OC[C@H]1O[C@@H](n2ccc(=O)[nH]c2=O)[C@@]2(CCO2)[C@@H]1O)Oc1ccccc1 (some centres undefined)"
  Drug metabolism: "351 ng/mL"
- compound: "C[C@H](NP(=O)(OC[C@H]1O[C@@H](n2ccc(=O)[nH]c2=O)[C@@]2(CCO2)[C@@H]1O)Oc1ccccc1)C(=O)OCc1ccccc1 (mixture of isomers)"
  Drug metabolism: "304 ng/mL"
